Tested on: Inhibin beta A chain (activin A)
Protocol details: INHBA (activin A) binders on microarrays, primary screen, biochemical, small-molecule microarray, 635 nm fluorescence scan (AID 1107);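 note: mouse activin A protein probed at 4.33 µg/mL on printed slides; score merges bound-protein fluorescence near 667 nm with spot signal-to-noise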
Condition info: small-molecule microarray binding, higher = more signal
Property: composite z-score
Lab note: jot down the number only; don't add units.

Illustrative cases are given below, each with its answer.
{"columns": ["Compound", "Reported result"],
 "data": [
  ["C=C(C(=O)CC[C@@H](OC(C)=O)c1ccc(CO)o1)C(C)C", 1.41],
  ["CC(C)(C)OC(=O)CC[C@@]1(C(=O)NCc2ccccc2)N=C(c2ccc(OCCCO)cc2)O[C@@H]1c1ccccc1N=[N+]=[N-]", 0.795]
]}

Look up composite z-score for this compound: "COC(=O)[C@@]1(Cc2ccc(F)cc2)[C@H]2c3cc(C(=O)N(C)C)n(CCc4ccc(O)c(OC)c4)c3C[C@H]2CN1C(=O)c1ccccc1"
0.366

* * *

Tested on: Human papillomavirus type 1a protein E7 (residues 44-93)
Protocol details: HPV1a E7 fragment binders on microarrays, primary screen, biochemical, small-molecule microarray, residues 44-93, 635 nm fluorescence (AID 1108);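 note: E7 fragment applied at 1 µg/mL in TBST for 1 h at 4 C; score combines spot fluorescence with its signal to noise ratio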
Condition info: small-molecule microarray binding, fluorescence 635 nm; higher = more signal
Property: composite z-score

# count of solved cases: 5
{"columns": ["Compound", "Reported result"],
 "data": [
  ["C=CCOC(=O)[C@H]1[C@@H]2C(=O)O[C@@H](c3ccccc3)[C@@H](c3ccccc3)N2[C@@H](c2ccc(OCCOC(=O)[C@@H]3C[C@@H]4C(=O)N[C@@H](CCCCN(C)C)C(=O)N4[C@@H]3c3ccc(O)cc3)cc2)[C@]12C(=O)Nc1ccccc12", -0.541],
  ["COc1cc(OC)c(C(O)C2C=CC3C(=O)N(C)C(=O)C3N2NC(=O)OC(C)(C)C)cc1Br (stereo unspecified)", 1.45],
  ["COCCOC(=O)N1C(=O)[C@@]2(c3cc(C#CCCO)ccc31)[C@H](c1ccccc1OCCO)N1[C@H](c3ccccc3)[C@H](c3ccccc3)OC(=O)[C@H]1[C@@H]2C(=O)Nc1nc2ccccc2s1", 0.323],
  ["O[C@@H](Cc1ccccc1)[C@@H](/C=C/C1CC1)N(CC#Cc1ccccc1)Cc1cccc(Cl)c1", -0.55],
  ["COCCOC(=O)N1C(=O)[C@@]2(c3cc(C#Cc4ccc(OC)cc4)ccc31)[C@H](C(=O)Nc1nc3ccccc3s1)[C@H]1C(=O)O[C@H](c3ccccc3)[C@H](c3ccccc3)N1[C@@H]2c1ccc(OCCO)cc1", 1.17]
]}

Give Human papillomavirus type 1a protein E7 (residues 44-93) composite z-score for OCCCC1=CC(c2ccc(CN3CCCC3)cc2)N(Cc2sc3ccccc3c2Cl)CC1 (stereo unspecified)
1.32

* * *

Assay system: Focal adhesion kinase 1 (Homo sapiens)
Protocol details: small-molecule microarray binders of FAK, primary screen, biochemical, 635/667 nm fluorescence, BSA, DTT (AID 1130);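 note: composite of spot emission at 667 nm and signal to noise over triplicate slides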
Condition info: PTK2 binding, 635 nm fluorescence, higher = more signal
Property: composite z-score
Reply with just the number.

Known composite z-score results, listed for orientation:
{"columns": ["Compound", "Property", "Reported result"],
 "data": [
  ["CC(C)OC(=O)C=C1C[C@@H](c2ccc(C(F)(F)F)cc2)O[C@@H](c2ccc(C(F)(F)F)cc2)O1", "composite z-score", 1.04],
  ["C=C(C)[C@@H]1CC=C(C(O)C2C=CC3C(=O)N(c4ccccc4)C(=O)C3N2Nc2ccccc2F)CC1 (stereo not given in full)", "composite z-score", 1.12],
  ["COc1ccc(CCN2C(=O)[C@@]3(Cc4ccccc42)c2ccccc2C(=O)N(Cc2ccccc2OC)[C@H]3c2ccc(CO)cc2)cc1", "composite z-score", -0.149],
  ["CCCCCCCCCCC(O)C1C=CC2C(=O)N(C)C(=O)C2N1NC(=O)OC(C)(C)C (stereo not given)", "composite z-score", 0.723],
  ["C=C(CCCC)/C(=C/C[C@@H](OC(=O)c1ccncc1)c1ccccc1OCCO)c1cnc2ccccc2c1", "composite z-score", 0.0585],
  ["C=CCNC(=O)[C@H]1[C@@H]2C(=O)O[C@@H](c3ccccc3)[C@@H](c3ccccc3)N2[C@@H](c2ccc(O)cc2)[C@]12C(=O)N(C(=O)OCCOC)c1ccccc12", "composite z-score", 0.484]
]}

composite z-score lookup needed for "COC(=O)c1c(CC[C@@H](CO)NC(=O)N2CCC[C@H]2Cn2cc(Cc3ccccc3)nn2)oc(C(C)=O)c1C(=O)OC" , thanks.
0.397

# iterate: "CCOC(=O)[C@H]1[C@@H]2C(=O)N3CCC[C@H]3[C@H](O[Si](C(C)C)(C(C)C)C(C)C)[C@H]2C=C2CCN(S(=O)(=O)c3ccc(C)cc3)C[C@H]21"
-0.268

And "O=C1C=C(c2ccccc2)C(=O)c2ccc([C@H]3Oc4ccccc4S(=O)(=O)N4CCC[C@@H]34)cc21" ?
-0.29

Record: "NC(N)=NCCCn1cc(CNC(=O)[C@@H](N)Cc2ccccc2)nn1"
-0.242
